From: patent US8980911B2

assayed.system: JAK3 (Homo sapiens, UniProt P52333)
Construct: All enzymes only contain the catalytic domain; His (N)
Sequence (P52333 822-1111 limits assumed): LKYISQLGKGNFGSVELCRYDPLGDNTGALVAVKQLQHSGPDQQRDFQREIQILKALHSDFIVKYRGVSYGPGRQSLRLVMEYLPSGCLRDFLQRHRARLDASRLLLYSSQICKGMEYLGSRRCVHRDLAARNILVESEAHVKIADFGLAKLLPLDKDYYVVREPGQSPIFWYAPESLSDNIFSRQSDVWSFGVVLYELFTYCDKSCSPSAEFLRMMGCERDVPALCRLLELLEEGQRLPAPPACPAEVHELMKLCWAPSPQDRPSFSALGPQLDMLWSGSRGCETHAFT
method: In vitro enzyme assay (cell-free HTRF kinase assay), JAK3
condition.summary: catalytic domain, His-tag; ATP 3 μM, SRCtide 100 nM, reaction 30 min
Measured IC50 accompanies every entry in the list below.

Use the examples below as a reference point.
>>> df
                                        mol                       assayed_system  obs_value
0  O=C(c1c(Cl)cccc1Cl)c1c[nH]c2c(NC(=O)C3CC3)nccc12  JAK3 (Homo sapiens, UniProt P52333)   < 500 nM
1  O=C(NCCCN1CCOCC1)c1cc(Cl)c(C(=O)n2ccc3c(NC(=O)C4CC4)nccc32)c(Cl)c1  JAK3 (Homo sapiens, UniProt P52333)   < 500 nM
2  CCNC(=O)c1cc(Cl)c(C(=O)c2c[nH]c3c(NC(=O)C4CC4)nccc23)c(Cl)c1  JAK3 (Homo sapiens, UniProt P52333)   < 500 nM
3  O=C(O)CNC(=O)c1cc(Cl)c(C(=O)c2c[nH]c3c(NC(=O)C4CC4)nccc23)c(Cl)c1  JAK3 (Homo sapiens, UniProt P52333)    < 50 nM

Request: # query: IC50 of entry O=C(NCC1CC1)c1cc(Cl)c(C(=O)c2c[nH]c3c(NC(=O)C4CC4)nccc23)c(Cl)c1
Result: < 500 nM

Request: # query: IC50 of entry CC(=O)Nc1cc(Cl)c(C(=O)c2c[nH]c3c(NC(=O)C4CC4)nccc23)c(Cl)c1
Result: < 100 nM

Request: # query: IC50 of entry CCNCc1cc(Cl)c(C(=O)n2ccc3c(NC(=O)C4CC4)nccc32)c(Cl)c1
Result: < 500 nM
